- studyTarget: WecA (Tm) (Thermotoga maritima)
- Sequence (Q9X1N5 whole entry): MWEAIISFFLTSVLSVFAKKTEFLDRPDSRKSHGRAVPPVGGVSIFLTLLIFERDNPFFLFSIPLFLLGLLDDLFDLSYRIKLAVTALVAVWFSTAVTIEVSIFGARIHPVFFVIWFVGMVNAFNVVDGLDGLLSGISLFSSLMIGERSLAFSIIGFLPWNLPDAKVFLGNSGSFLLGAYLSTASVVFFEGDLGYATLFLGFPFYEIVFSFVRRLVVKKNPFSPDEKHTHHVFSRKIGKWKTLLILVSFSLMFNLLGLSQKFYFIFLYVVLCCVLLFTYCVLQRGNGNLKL
outcomeMeasure: IC50 (µM)
Give a bare numeral; the unit µM is implied.

Which measured IC50 belongs to `CC(=O)N[C@H]1[C@@H](OP(=O)(O)CP(=O)(O)OC[C@H]2O[C@@H](n3ccc(=O)[nH]c3=O)[C@H](O)[C@@H]2O)O[C@H](CO)[C@@H](O)[C@@H]1O` , tested on WecA (Tm) (Thermotoga maritima)? 41

* * *

- studyTarget: PglC (Cj) (Campylobacter jejuni)
- Sequence (Q0P9D0 whole entry): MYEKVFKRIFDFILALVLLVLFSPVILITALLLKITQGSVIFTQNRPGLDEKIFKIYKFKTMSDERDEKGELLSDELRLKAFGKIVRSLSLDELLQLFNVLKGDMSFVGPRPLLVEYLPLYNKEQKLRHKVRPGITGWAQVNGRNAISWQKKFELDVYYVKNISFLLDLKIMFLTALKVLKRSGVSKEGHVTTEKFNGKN
outcomeMeasure: pIC50
In textbook form, pIC50 equals minus log to base ten of the concentration in mol/L.

Record lookup: for PglC (Cj) (Campylobacter jejuni), what pIC50 belongs to `CC(=O)N[C@H]1[C@@H](OP(=O)(O)C(F)(F)P(=O)(O)OC[C@H]2O[C@@H](n3ccc(=O)[nH]c3=O)[C@H](O)[C@@H]2O)O[C@H](CO)[C@@H](O)[C@@H]1O` ? 4.49
